Parameter: log10(Ki). Scope: all listed entries.
molecular target: CDK2/cyclin E (Homo sapiens, UniProt P24941); assay: Kinase assay CDK2/cyclin E; details: Ki calculated (Cheng-Prusoff) from experimentally determined IC50 and Km,ATP; read-out: Kinase Inhibition Ki CDK2 - cyclin E
measurement_label: log10(Ki) (log10 of the value in nM)

INSERT INTO measurements (molecule_smiles, measurement_label, observed) VALUES
  ('Cc1c(-c2ccnc(Nc3cccc(C#N)c3)n2)sc(=O)n1C', 'log10(Ki)', -0.30),
  ('COc1ccc(Nc2nccc(-c3sc(=O)n(C)c3C)n2)cc1', 'log10(Ki)', 2.58),
  ('Cc1ccc(Nc2nccc(-c3sc(=O)n(C)c3C)n2)cc1[N+](=O)[O-]', 'log10(Ki)', 1.79),
  ('CCn1c(C)c(-c2ccnc(Nc3ccc(Cl)c(C(=O)O)c3)n2)sc1=O', 'log10(Ki)', 3.28),
  ('CC(=O)NCc1ccc(Nc2nccc(-c3sc(=O)n(C)c3C)n2)cc1', 'log10(Ki)', 0.20),
  ('CC(=O)N1CCN(c2ccc(Nc3nccc(-c4sc(=O)n(C)c4C)n3)cc2)CC1', 'log10(Ki)', 2.41),
  ('Cc1c(-c2ccnc(Nc3cccc(S(N)(=O)=O)c3)n2)sc(=O)n1C', 'log10(Ki)', 0.53);
